# Test system: wheat powdery mildew
# assay-summary: Protectant activity in vivo (whole plant), wheat powdery mildew
# condition-info: Triticum aestivum, 168 h, 400 mg/L, read-out: protectant activity against wheat powdery mildew
assay-metric: pest or weed control at 400 µg/mL (%)

>>> print(df.to_string())
                                    compound                       assay_metric  reported_result
 0  Cc1ncnc(NC(C)c2ccc3c(c2)OC(F)(F)O3)c1Cl (centres unmarked)  pest or weed control at 400 µg/mL              100
 1         COc1ccc(CNc2ncnc(C(F)F)c2Cl)cc1OC  pest or weed control at 400 µg/mL               85
 2           CCc1ncnc(NCc2ccc3c(c2)OCO3)c1Cl  pest or weed control at 400 µg/mL                0
 3            COc1ccc(CCNc2ncnc(C)c2Cl)cc1OC  pest or weed control at 400 µg/mL              100
 4         ClCc1ncnc(NCCc2ccc3c(c2)OCO3)c1Cl  pest or weed control at 400 µg/mL                0
 5              COc1cc(CNc2ncnc(C)c2Cl)ccc1O  pest or weed control at 400 µg/mL                0
 6          ClCc1ncnc(NCc2ccc3c(c2)OCO3)c1Cl  pest or weed control at 400 µg/mL                0
 7  Cc1c(Cl)c(NCCc2ccc3c(c2)OCO3)nc[n+]1CC(=O)c1ccc(Cl)cc1  pest or weed control at 400 µg/mL                0
 8               Cc1ncnc(NCCc2ccc(O)cc2)c1Cl  pest or weed control at 400 µg/mL                0
 9        COc1ccc(CCNc2ncnc(C(F)F)c2Cl)cc1OC  pest or weed control at 400 µg/mL              100
10     COc1ccc(CCNc2ncnc(C(F)(F)F)c2Cl)cc1OC  pest or weed control at 400 µg/mL               80

---

# Test system: wheat powdery mildew
# assay-summary: Protectant activity in vivo (whole plant), wheat powdery mildew
# condition-info: Triticum aestivum, 168 h, 400 mg/L, read-out: protectant activity against wheat powdery mildew
assay-metric: pest or weed control at 400 µg/mL (%)

>>> df
                                   compound  reported_result
0  FC(F)c1ncnc(NCc2ccc3c(c2)OCO3)c1Cl [CK9]               70
1  c1ccc2c(NCc3ccc4c(c3)OCO4)ncnc2c1 [CK13]                0
2  c1ccc2c(NCCc3ccc4c(c3)OCO4)ncnc2c1 [ACTA-1]                0
3      Cc1ncnc(NCc2ccc3c(c2)OCO3)c1Cl [CK2]               60

---

# Tested on: cucumber downy mildew
# assay-summary: Protectant activity in vivo (whole plant), cucumber downy mildew
# condition-info: 50 mg/L
assay-metric: protectant activity against cucumber downy mildew

>>> df
                                   compound  reported_result
0  FC(F)c1ncnc(NCCc2ccc3c(c2)OCO3)c1Cl [Compound 18]             100%
1  Cc1ncnc(NCCc2ccc3c(c2)OCO3)c1Cl [Compound 1452]               0%
2  Clc1ncnc(NCCc2ccc3c(c2)OCO3)c1Cl [Compound 2]             100%
3  Cc1ncnc(NCCc2ccc3c(c2)OCO3)c1Cl [Compound 5]             100%
4  FC(F)(F)c1ncnc(NCCc2ccc3c(c2)OCO3)c1Cl [Compound 20]             100%
